Form field: pIC50 (one value per entry).
molecular target: 5-lipoxygenase (Rattus norvegicus); construct: homogenized RBL-1 cells; endogenous in cells; test: 5-Lipoxygenase IC50 determination (20,000×G supernatant of homogenized RBL-1 cells, radiolabeled arachidonic acid); details: 20,000×G supernatant from homogenized RBL-1 cells
Sequence (P12527 whole entry): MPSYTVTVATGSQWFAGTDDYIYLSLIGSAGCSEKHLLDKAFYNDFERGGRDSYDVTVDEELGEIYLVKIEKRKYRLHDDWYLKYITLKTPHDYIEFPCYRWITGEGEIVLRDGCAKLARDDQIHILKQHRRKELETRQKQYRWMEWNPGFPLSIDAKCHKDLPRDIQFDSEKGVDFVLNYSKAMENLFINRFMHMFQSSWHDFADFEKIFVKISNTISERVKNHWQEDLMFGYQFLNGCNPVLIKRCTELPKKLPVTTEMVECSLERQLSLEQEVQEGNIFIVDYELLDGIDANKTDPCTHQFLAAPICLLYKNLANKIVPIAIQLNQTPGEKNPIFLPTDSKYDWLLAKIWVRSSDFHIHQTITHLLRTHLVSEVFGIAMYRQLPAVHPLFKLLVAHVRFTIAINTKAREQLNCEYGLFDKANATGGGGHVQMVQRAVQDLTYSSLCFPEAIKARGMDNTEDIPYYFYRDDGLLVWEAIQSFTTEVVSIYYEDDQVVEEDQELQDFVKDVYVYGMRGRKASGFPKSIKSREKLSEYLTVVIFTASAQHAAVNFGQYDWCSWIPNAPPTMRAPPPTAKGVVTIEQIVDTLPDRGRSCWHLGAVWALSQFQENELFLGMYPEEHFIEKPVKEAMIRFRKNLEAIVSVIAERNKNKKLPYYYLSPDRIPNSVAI
pIC50: −log10 of the molar value.
PROPERTY_MEASURED: pIC50

CCCCCCCCCOc1ccc2cc(C(=O)NO)ccc2c1 [Example 1, 6-(1-nonoxy)-2-naphthohydroxamic acid]
4.70
CCCCOc1ccc2cc(C(=O)N(C)O)ccc2c1 [Example 4]
6.39
CCCCCCCCOc1ccc2cc(C(=O)NO)ccc2c1 [Example 6, 6-(1-octoxy)-2-naphthohydroxamic acid]
5.19
O=C(NO)c1ccc2cc(OCc3ccccc3)ccc2c1 [Example 9, 6-(benzyloxy)-2-naphthohydroxamic acid]
4.52
C=CCOc1ccc2cc(C(=O)NO)ccc2c1 [Example 7]
5.34
CCCCOc1ccc2cc(C(=O)NO)ccc2c1 [Example 3, 6-(1-butoxy)-2-naphthohydroxamic acid]
5.70
COc1ccc2cc(C(=O)NO)ccc2c1 [Example 2, 6-Methoxy-2-naphthohydroxamic acid]
5.10
CCCCCCCOc1ccc2cc(C(=O)NO)ccc2c1 [Example 5, 6-(1-heptoxy)-2-naphthohydroxamic acid]
5.15
